# screen value per entry
B1: GST-tagged USP8 MIT domain (1-142) [human] / DNAJB6 118-130 peptide, cellulose-bound (SPOT array) [not stated] (parent complex)
chain 1: MPAVASVPKELYLSSSLKDLNKKTEVKPEKISTKSYVHSALKIFKTAEECRLDRDEERAYVLYMKYVTVYNLIKKRPDFKQQQDYFHSILGPGNIKKAVEEAERLSESLKLRYEEAEVRKKLEEKDRQEEAQRLQQKRQETG
chain 2: PFEDFFGNRRGPR

# Variants of: B1
# TEST NAME: SPOT array alanine scanning; read off a plot

Worked set:
MUTANT ID: chain 2 N8A
RESULT: ~-48%
--
MUTANT ID: chain 2 G11A
RESULT: ~-39%
--
MUTANT ID: chain 2 P1A
RESULT: ~30%
--
MUTANT ID: chain 2 F5A
RESULT: ~-63%

Next variant, screen value to be filled in.
IN: Find the recorded screen value belonging to chain 2 D4A and report it.
OUT: ~-88%
